# Test system: Escherichia coli (ATCC25922) or Staphylococcus aureus (ATCC25923)
# Assay: Antibacterial MIC, microdilution method in Mueller-Hinton medium
# Assay type: cell-based
# Settings: Escherichia coli, 18 h, MIC in E. coli or S. aureus; two-fold serial dilutions 64 to 0.5 μg/ml in duplicate; 18 hours of incubation at 35° C.; read-out: Potency (MIC)
# Experimental: The antibacterial activity of the Formula I compounds was evaluated against standard bacterial strains by determining the minimal inhibitory concentration (MIC) to block growth. Each drug was assayed by the microdilution method in Mueller-Hinton medium, as recommended by the National Committee for Clinical Laboratory Standards. […] The MIC was determined as the lowest concentration of each compound that prevented bacterial growth after 18 hours of incubation at 35° C. […]
Observed Property: MIC

# input Answer with the recorded MIC for the compound listed here: C=CCOC1OC(CO)C(O)C(O)C1Nc1nc(N2C[C@H](N)C[C@H](N)C2)nc(N2C[C@H](N)C[C@H](N)C2)n1.Cl (stereo partly shown)
# output > 64 µg/mL

# input Answer with the recorded MIC for the compound listed here: Cl.Nc1ccc(Nc2nc(N3C[C@H](N)C[C@H](N)C3)nc(N3C[C@H](N)C[C@H](N)C3)n2)cc1
# output > 64 µg/mL

# input Answer with the recorded MIC for the compound listed here: N[C@@H]1C[C@H](N)CN(c2nc(Nc3ccc(S(=O)(=O)Nc4ccc5cn[nH]c5c4)cc3)nc(N3CCC(N4CCCC4)CC3)n2)C1
# output > 64 µg/mL

# input Answer with the recorded MIC for the compound listed here: CSc1cccc(Nc2nc(N3C[C@H](N)C[C@H](N)C3)nc(N3C[C@H](N)C[C@H](N)C3)n2)c1.Cl
# output < 64 µg/mL

# input Answer with the recorded MIC for the compound listed here: N[C@@H]1C[C@H](N)CN(c2nc(Nc3ccc(S(=O)(=O)Nc4ccc5cn[nH]c5c4)cc3)nc(NC3CCCNC3)n2)C1 (stereo partly shown)
# output > 64 µg/mL

# input Answer with the recorded MIC for the compound listed here: N[C@@H]1CC(c2nc(NCc3ccco3)nc(N3C[C@H](N)C[C@H](N)C3)n2)C[C@H](N)C1 (stereo partly shown)
# output > 64 µg/mL

# input Answer with the recorded MIC for the compound listed here: Cc1ccc(S(=O)(=O)N(Cc2ccccc2)c2ccc(Nc3nc(N4CCCCC4)nc(N4CCN(c5ccncc5)CC4)n3)cc2O)cc1.Cl
# output < 16 µg/mL

###

# Test system: Escherichia coli (ATCC25922) or Staphylococcus aureus (ATCC25923)
# Assay: Antibacterial MIC, microdilution method in Mueller-Hinton medium
# Assay type: cell-based
# Settings: Escherichia coli, 18 h, MIC in E. coli or S. aureus; two-fold serial dilutions 64 to 0.5 μg/ml in duplicate; 18 hours of incubation at 35° C.; read-out: Potency (MIC)
Observed Property: MIC

Previously resolved entries follow.
# input Provide MIC, system Escherichia coli (ATCC25922) or Staphylococcus aureus (ATCC25923), entry Cl.NC(=O)c1[nH]cnc1Nc1nc(N2C[C@H](N)C[C@H](N)C2)nc(N2C[C@H](N)C[C@H](N)C2)n1
# output > 64 µg/mL

# input Provide MIC, system Escherichia coli (ATCC25922) or Staphylococcus aureus (ATCC25923), entry CC(=O)Nc1ccc(Nc2nc(N3C[C@H](N)C[C@H](N)C3)nc(N3C[C@H](N)C[C@H](N)C3)n2)cc1 [drawing 178]
# output > 64 µg/mL

Continuing:
# input Provide MIC, system Escherichia coli (ATCC25922) or Staphylococcus aureus (ATCC25923), entry COc1nc(Nc2ccc(N(Cc3ccccc3)S(=O)(=O)c3ccc(C)cc3)c(O)c2)nc(N2CCCCC2)n1.Cl
# output < 16 µg/mL

# input Provide MIC, system Escherichia coli (ATCC25922) or Staphylococcus aureus (ATCC25923), entry N[C@@H]1C[C@H](N)CN(c2nc(NNc3ccc([N+](=O)[O-])cc3[N+](=O)[O-])nc(N3C[C@H](N)C[C@H](N)C3)n2)C1
# output > 64 µg/mL

# input Provide MIC, system Escherichia coli (ATCC25922) or Staphylococcus aureus (ATCC25923), entry Cl.NC(=O)c1ccc(Nc2nc(N3C[C@H](N)C[C@H](N)C3)nc(N3C[C@H](N)C[C@H](N)C3)n2)nc1
# output > 64 µg/mL

# input Provide MIC, system Escherichia coli (ATCC25922) or Staphylococcus aureus (ATCC25923), entry N[C@@H]1C[C@H](N)CN(c2nc(Nc3cccc(NC(=O)c4cc5cccc(O)c5cc4O)c3)nc(N3C[C@H](N)C[C@H](N)C3)n2)C1
# output < 64 µg/mL

# input Provide MIC, system Escherichia coli (ATCC25922) or Staphylococcus aureus (ATCC25923), entry Cl.N[C@@H]1C[C@H](N)CN(c2nc(NCc3ccco3)nc(N3C[C@H](N)C[C@H](N)C3)n2)C1
# output > 64 µg/mL

# input Provide MIC, system Escherichia coli (ATCC25922) or Staphylococcus aureus (ATCC25923), entry COc1ccc(OC)c(Nc2nc(N3C[C@H](N)C[C@H](N)C3)nc(N3C[C@H](N)C[C@H](N)C3)n2)c1
# output > 64 µg/mL

# input Provide MIC, system Escherichia coli (ATCC25922) or Staphylococcus aureus (ATCC25923), entry Cl.O=C(Nc1ccc(Nc2nc(N3CCCCC3)nc(N3CCCCC3)n2)cc1)c1ccc2ccccc2c1O
# output < 64 µg/mL

# input Provide MIC, system Escherichia coli (ATCC25922) or Staphylococcus aureus (ATCC25923), entry Cl.N[C@@H]1C[C@@H](N)CN(c2nc(N3CCC4CCCCC4C3)nc(N3C[C@H](N)C[C@H](N)C3)n2)C1 (stereo partly drawn)
# output > 64 µg/mL

# input Provide MIC, system Escherichia coli (ATCC25922) or Staphylococcus aureus (ATCC25923), entry Cc1cc(Br)ccc1Nc1nc(N2CCCCC2)nc(N2CCCCC2)n1.Cl
# output > 64 µg/mL

# input Provide MIC, system Escherichia coli (ATCC25922) or Staphylococcus aureus (ATCC25923), entry Cl.N[C@@H]1C[C@H](N)CN(c2nc(Nc3cccc(Br)c3)nc(N3C[C@H](N)C[C@H](N)C3)n2)C1
# output < 64 µg/mL

# input Provide MIC, system Escherichia coli (ATCC25922) or Staphylococcus aureus (ATCC25923), entry Cc1cc(C)c(S(=O)(=O)Nc2ccc(Nc3nc(N4CCCCC4)nc(N4CCCCC4)n3)cc2O)c(C)c1.Cl
# output < 64 µg/mL

# input Provide MIC, system Escherichia coli (ATCC25922) or Staphylococcus aureus (ATCC25923), entry Cl.N[C@@H]1C[C@H](N)CN(c2nc(Nc3c[nH]c(=O)[nH]c3=O)nc(N3C[C@H](N)C[C@H](N)C3)n2)C1
# output < 64 µg/mL

# input Provide MIC, system Escherichia coli (ATCC25922) or Staphylococcus aureus (ATCC25923), entry Cc1ccc(C(=O)Nc2ccc(Nc3nc(N4CCN(c5ccncc5)CC4)nc(N4C[C@H](N)C[C@H](N)C4)n3)cc2O)cc1
# output < 64 µg/mL

###

# System: Escherichia coli (ATCC25922) or Staphylococcus aureus (ATCC25923)
# Assay: Antibacterial MIC, microdilution method in Mueller-Hinton medium
# Format: cell-based
# Settings: Escherichia coli, 18 h, read-out: Potency (MIC)
Let's look at some compounds and their measured MIC.

Previously resolved entries follow.
# input Answer with the recorded MIC for the compound listed here: N[C@@H]1C[C@H](N)CN(c2nc(Nc3ccc(NC(=O)c4ccc(C(F)(F)F)nc4O)cc3)nc(N3C[C@H](N)C[C@H](N)C3)n2)C1
# output < 16 µg/mL

# input Answer with the recorded MIC for the compound listed here: N[C@@H]1C[C@H](N)CN(c2nc(Nc3ccc(C(=O)N4CCOCC4)c(O)c3)nc(N3C[C@H](N)C[C@H](N)C3)n2)C1
# output > 64 µg/mL

# input Answer with the recorded MIC for the compound listed here: N[C@@H]1C[C@H](N)CN(c2nc(Nc3ccc(NS(=O)(=O)c4ccc5c(c4)CN(C(=O)C(F)(F)F)CC5)c(O)c3)nc(N3C[C@H](N)C[C@H](N)C3)n2)C1
# output > 64 µg/mL

# input Answer with the recorded MIC for the compound listed here: N[C@@H]1C[C@H](N)CN(c2nc(Nc3ccc(NC(=O)c4ccc(C(F)(F)F)nc4O)c(O)c3)nc(N3C[C@H](N)C[C@H](N)C3)n2)C1
# output < 64 µg/mL

Continuing:
# input Answer with the recorded MIC for the compound listed here: N[C@@H]1C[C@H](N)CN(c2nc(Nc3ccc(NC(=O)c4ccc(Cl)cc4O)cc3)nc(N3C[C@H](N)C[C@H](N)C3)n2)C1
# output < 16 µg/mL

# input Answer with the recorded MIC for the compound listed here: N[C@@H]1C[C@H](N)CN(c2nc(Nc3nc4ccc([N+](=O)[O-])cc4s3)nc(N3C[C@H](N)C[C@H](N)C3)n2)C1
# output < 16 µg/mL

The measured values listed here are drawn from patent US7223759B2.
